Answer each item with its documented herbicidal effect rating, CYPIR.
- Test system: Cyperus iria
- Method description: Preemergence weed control under flooded paddy conditions, CYPIR (Rice Flatsedge); also: meaning of each grade not given here
- Assay type: in vivo
- Run parameters: 0.2500 kg/ha; preemergence weeds, flooded paddy; rated three to four weeks after treatment

Record CC(C)=CCOC(=O)COc1ccc(C)cc1-c1nsc2ccc(-n3c(=O)cc(C(F)(F)F)n(C)c3=O)cc12 , field herbicidal effect rating, CYPIR: 4.0

Consider CCCCOCc1nsc2ccc(-n3c(=O)cc(C(F)(F)F)n(C)c3=O)cc12 . Its measured herbicidal effect rating, CYPIR is 9.0

// sample COCCOC(=O)COc1ccc(C)cc1-c1nsc2ccc(-n3c(=O)cc(C(F)(F)F)n(C)c3=O)cc12 , its herbicidal effect rating, CYPIR was 4.0

compound CC(C)SCc1nsc2ccc(-n3c(=O)cc(C(F)(F)F)n(C)c3=O)cc12 , herbicidal effect rating, CYPIR observed: 9.0

# herbicidal effect rating, CYPIR of Cn1c(C(F)(F)F)cc(=O)n(-c2ccc3snc(COC(CF)CF)c3c2)c1=O = 8.5
